GI50 values, listed per item
- Tested on: IGROV-1
- PROCEDURE_SUMMARY: NCI tumour cell line growth inhibition, 48 h
The source made the active and inactive calls. No stated cut-off is given here; in the data, active = GI50 up to about 1.1 µM and inactive = higher.

{"ENTRY_SMILES": "C[C@]12CC[C@H](O[C@@H]3O[C@H](CO[C@@H]4O[C@H](CO)[C@@H](O)[C@H](O)[C@H]4O)[C@@H](O)[C@H](O)[C@H]3O)C[C@@H]1CC[C@@H]1[C@@H]2CC[C@]2(C)[C@@H](C3=CC(=O)OC3)CC[C@]12O", "OBSERVATION_TYPE": "GI50", "MEAS_VALUE": "10.7 µM (inactive)"}
{"ENTRY_SMILES": "[N-]=[N+]=CC(=O)OCCCCl", "OBSERVATION_TYPE": "GI50", "MEAS_VALUE": "> 100 µM (inactive)"}

Turning now to a further molecule:
Please report GI50 for the following molecule: `C=C(Br)N(CC)CC`
> 100 µM (inactive)

----------
- Tested on: NCI/ADR-RES
- PROCEDURE_SUMMARY: NCI tumour cell line growth inhibition, 48 h
The source made the active and inactive calls. No stated cut-off is given here; in the data, active = GI50 up to about 1.1 µM and inactive = higher.
GI50 values, listed per item

// solved cases for GI50 follow
{"COMPOUND": "Nc1ccc(S(=O)(=O)Nc2nc3ccccc3nc2Nc2ccc(S(N)(=O)=O)cc2)cc1", "GI50": "45.9 µM (inactive)"}
{"COMPOUND": "Cc1ccc(Nc2nnc(-c3ccc4c(c3)OCO4)o2)c(C)c1", "GI50": "> 100 µM (inactive)"}
{"COMPOUND": "O=C(CC(=O)Nc1ccc(C(=O)O)cc1)Nc1ccc(C(=O)O)cc1", "GI50": "> 100 µM (inactive)"}

Write down the reported GI50 (system: NCI/ADR-RES) of `O=C(O)c1cccc(CN2CCCCC2)c1`
> 100 µM (inactive)

Write down the reported GI50 (system: NCI/ADR-RES) of `O=C1/C(=C/c2ccco2)NC(=S)N1CN1CCOCC1`
> 100 µM (inactive)

Write down the reported GI50 (system: NCI/ADR-RES) of CC(C)(Br)C(Br)CCC1(C2CO2)CO1 (configuration not stated)
> 5 µM (inactive)

Write down the reported GI50 (system: NCI/ADR-RES) of `O=C(CCc1ccc(O)c(O)c1)OCCc1ccccc1`
> 100 µM (inactive)

----------
- Test system: OVCAR-3
- PROCEDURE_SUMMARY: NCI tumour cell line growth inhibition, 48 h
Calls of active or inactive are those of the source. Rule as the data show it: active = GI50 up to about 1.1 µM and inactive = higher.
GI50 values, listed per item

{"COMPOUND": "COc1ccccc1-c1nc(O)c2ccccc2n1", "GI50": "> 100 µM (inactive)"}

Write down the reported GI50 (system: OVCAR-3) of `O=C1/C(=C/c2ccco2)NC(=S)N1CN1CCOCC1`
> 100 µM (inactive)

Write down the reported GI50 (system: OVCAR-3) of `CCC(=O)C1(N2CCOCC2)CCN(CCCC(=O)c2ccc(F)cc2)CC1`
> 100 µM (inactive)

Write down the reported GI50 (system: OVCAR-3) of CC(C)C1=CC(=O)[C@@](C)(C2[C@H](O)C[C@@]3(C)[C@@H]4CC=C5[C@@H](CC[C@@H](OC6OCC(O)C(O)C6OC6OC(C)C(O)C(O)C6O)C5(C)C)[C@]4(C)C(=O)C[C@]23C)O1 (stereo not given in full)
> 100 µM (inactive)

Write down the reported GI50 (system: OVCAR-3) of `Nc1ccc(S(=O)(=O)Nc2nc3ccccc3nc2Nc2ccc(S(N)(=O)=O)cc2)cc1`
32.4 µM (inactive)
